From: ChEMBL document CHEMBL2016452

system-tested: Carbonic anhydrase 3 (Homo sapiens)
Sequence (P07451 whole entry): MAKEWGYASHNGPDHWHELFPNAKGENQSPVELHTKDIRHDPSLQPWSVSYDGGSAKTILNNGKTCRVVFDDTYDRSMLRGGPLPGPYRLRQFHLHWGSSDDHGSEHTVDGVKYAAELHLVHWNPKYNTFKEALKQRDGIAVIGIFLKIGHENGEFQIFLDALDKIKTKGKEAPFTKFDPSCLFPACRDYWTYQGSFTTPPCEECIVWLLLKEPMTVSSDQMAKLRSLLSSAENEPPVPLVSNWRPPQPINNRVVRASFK
readout-label: pKi
Expect pKi as a plain number equal to -log10 of the molar concentration.

Asked: Consider the compound Oc1ccc(C=Cc2cc(O)cc(O)c2)cc1 (mixture of isomers) and give its measured pKi.
Given back: 5.17

----------
system-tested: Carbonic anhydrase 4 (Homo sapiens)
Sequence (P22748 whole entry): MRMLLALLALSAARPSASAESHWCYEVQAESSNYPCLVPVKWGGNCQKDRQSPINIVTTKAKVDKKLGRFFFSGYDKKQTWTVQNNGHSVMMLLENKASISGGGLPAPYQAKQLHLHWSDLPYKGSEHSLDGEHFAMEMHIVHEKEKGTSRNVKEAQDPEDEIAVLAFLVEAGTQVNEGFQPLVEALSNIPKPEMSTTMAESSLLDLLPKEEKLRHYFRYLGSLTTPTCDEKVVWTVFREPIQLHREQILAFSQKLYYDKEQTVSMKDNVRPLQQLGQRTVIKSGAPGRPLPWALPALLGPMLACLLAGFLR
readout-label: pKi
The read-out pKi is expressed as -log10 of concentration in moles per litre.

Asked: What does the record list as pKi for Oc1ccc(C=Cc2cc(O)cc(O)c2)cc1 (mixture of isomers) ?
Given back: 5.40
